Would you mind telling me the reported Ratio 15/60 (plasma level 15 min / 60 min) of each entry?
Test: Plasma drug levels after oral administration
Format: in vivo
Conditions: oral 3 mg/kg, male Sprague-Dawley rats
Answer with a number only.

// query Please report the recorded Ratio 15/60 (plasma level 15 min / 60 min) for CC1Cc2c(cccc2N2CC[C@H](NC(=O)C3CC3)C2)O1 (stereo partly drawn) .
// result 0.47

// query Ratio 15/60 (plasma level 15 min / 60 min) value for entry CCC(=O)NCC[C@@H]1CCc2ccc3c(c21)CCO3 [Ramelteon, reference compound]
// result 3.94

// query Quick one: Ratio 15/60 (plasma level 15 min / 60 min) for CC(=O)N[C@H]1CCN(c2cccc3c2CC(C)O3)C1 (stereo partly drawn) ?
// result 2.29

// query Request the reported Ratio 15/60 (plasma level 15 min / 60 min) associated with CC(=O)N[C@H]1CCN(c2ccc(F)c3c2CC(C)O3)C1 (stereo partly drawn)
// result 1.03

// query Entry COc1ccc2[nH]cc(CCNC(C)=O)c2c1 [Melatonin, reference compound] : reported Ratio 15/60 (plasma level 15 min / 60 min) = ?
// result 3.49

// query Recorded Ratio 15/60 (plasma level 15 min / 60 min) for CCCC1Cc2c(cccc2N2CC[C@H](NC(=O)CC)C2)O1 (stereo partly drawn) , please?
// result 1.59

// query What value of Ratio 15/60 (plasma level 15 min / 60 min) has been recorded for this entry: CC1Cc2c(N3CC[C@H](NC(=O)C4CC4)C3)ccc(F)c2O1 (stereo partly drawn)
// result 0.58

// query If you can, please state the reported Ratio 15/60 (plasma level 15 min / 60 min) value of CCC(=O)N[C@H]1CCN(c2ccc(F)c3c2CC(C)O3)C1 (stereo partly drawn) .
// result 1.74

// query Report Ratio 15/60 (plasma level 15 min / 60 min) for CCC(=O)N[C@H]1CCN(c2cccc3c2CC(CC)O3)C1 (stereo partly drawn) please.
// result 1.80
